// data source = PubChem BioAssay (NCI)

# Tested on: IGROV1 ovarian
# protocol-summary: NCI tumour cell line growth inhibition, 48 h
observation-type: TGI

* Nc1nc(-c2ccc(Cl)c([N+](=O)[O-])c2)cs1 | > 100 µM
* CC(=O)N1CCN(c2ccc(OCC3COC(Cn4ccnc4)(c4ccc(Cl)cc4Cl)O3)cc2)CC1 (stereo not drawn) | > 100 µM
* CCOCN1COCN(C)C1=O | > 100 µM
* O=C(c1ccco1)c1c(C(F)(F)F)n([O-])c2ccc(C(F)(F)F)cc2[n+]1=O | 1.48 µM
* CCCC(=O)C1=C(O)C(Cc2c(O)c(C)c(O)c(C(=O)CCC)c2O)=C(O)C(C)(C)C1=O | > 50 µM
* CCCC/C(=C\C1=C(C)C(=O)C(OC)=C(OC)C1=O)C(=O)O | > 100 µM
* COc1ccc(-c2nccn2-c2ccc(OC)cc2)cc1 | > 82 µM
* COC(=O)CN1c2nc(C#N)c(C#N)nc2N(CC(=O)OC)c2nc(C#N)c(C#N)nc21 | 23.4 µM
* O=C(N/C(=C\c1ccc([N+](=O)[O-])cc1)c1nc2ccccc2[nH]1)c1ccccc1 | > 100 µM
* CC(C(=O)c1ccc(Cl)cc1)/C(=N/NC(=O)NN)C(=O)Nc1cccc(C(F)(F)F)c1 (stereo not drawn) | > 100 µM
* CCCCCCCCCCNC(=O)CI | 0.288 µM
* CCN1CCCC(NCc2c3ccccc3c(CNC3CCCN(CC)C3)c3ccccc23)C1 (stereo not drawn) | 55.7 µM
* O=C(Nc1ccccc1F)c1cc2ccc(O)cc2oc1=Nc1ccccc1F | 4.13 µM

* * *

TGI values by entry
# Tested on: IGROV1 ovarian
# protocol-summary: NCI tumour cell line growth inhibition, 48 h
observation-type: TGI

• CC1(C)CN=C(NN=C(/C=C/c2ccc(C(F)(F)F)cc2)/C=C/c2ccc(C(F)(F)F)cc2)NC1 = 2.88 µM
• COc1ccc(-c2nc(-c3cc(OC)cc(OC)c3)[nH]c2-c2ccc(OC)cc2)cc1 = > 100 µM
• Cc1ccc(OCCn2cc(Nc3ccccc3)c(=O)n(CCOc3ccc(C)cc3)c2=O)cc1 = > 100 µM
• Cn1c(=O)nc2n(-c3cc(C(F)(F)F)cc(C(F)(F)F)c3)c3ccccc3nc-2c1=O = > 100 µM
• COC(=O)CCc1cc(OC)c2c(c1)[C@H](C(=O)OC)[C@@H](c1ccc(O)c(OC)c1)O2 = > 100 µM
• COc1cc2c(Nc3cc(Cl)c(OC)c(Cl)c3)c(C#N)cnc2cc1OCCCN1CCN(C)CC1 = 12 µM
• O=C(NCc1ccc(Cn2c(=O)sn(-c3ccccc3)c2=O)cc1)OCc1ccc2cccc(O)c2n1 = 1.96 µM
• Nc1cc(Br)c(-c2nnc(CCC(=O)c3nc4ccccc4[nH]3)o2)c(Br)c1 = 62.7 µM
• COc1ccc(C(CC(=O)c2ccc3c(c2)OCO3)c2c(O)c3ccccc3oc2=O)cc1OC (centres undefined) = > 100 µM
• CCOC(CNCCC(=O)OC)OCC = > 10 µM
• O=C(CNc1c(Cl)cccc1Cl)NC1C=Cc2ccc(S(=O)(=O)Nc3c(Cl)cccc3Cl)cc2C1=O (centres undefined) = > 100 µM
• O=C(Cc1ccccc1)NN1C(=O)/C(=C\c2ccccc2)SC1=Nc1ccccc1 = > 100 µM
• O=c1[nH]cnc2c1ncn2[C@@H]1C[C@@H]1CO = > 100 µM
• CC(C)CCC[C@@H](C)C1CCC2[C@@H]3CC=C4C[C@@H](C(=O)NCCN(C)C)CC[C@]4(C)C3CC[C@@]21C (some centres undefined) = > 100 µM
• CC(C)(C)c1ccc2c(c1)S(=O)(=O)Nc1ccc(Cl)cc1NS(=O)(=O)c1cc(C(C)(C)C)ccc1OCCOCCOCCO2 = > 100 µM
• CCOC(=O)NC(=O)c1cn(C(CC)COC(=O)NCCCCCCNC(=O)OCC(CC)n2cc(C(=O)NC(=O)OCC)c(=O)[nH]c2=O)c(=O)[nH]c1=O (centres undefined) = > 100 µM
• S=c1[nH]c2ccc(Br)cc2c(=S)s1 = > 100 µM
• NC(=O)C(=O)CC(=O)c1ccccc1NC1=CC(=O)C(=O)c2ccccc21 = > 100 µM
• CCC(C)(O)c1cnc(CC(C)C)c(=O)n1O (centres undefined) = > 100 µM
